experiment: AUC (0 to t) in mouse brain at 50 mg/kg, po; assay type: ADME, organism-based; parameters: dose 50 mg/kg, route oral
quantity_name: AUC(0-t) (ng·h/mL)

- COC(=O)C(CCCN(C)CCCc1nc2ccccc2[nH]1)(c1ccc(Br)cc1)C(C)C (stereo unspecified): 973

* * *

target: Voltage-dependent T-type calcium channel subunit alpha-1G (Homo sapiens); test: Antagonist activity at T type calcium channel alpha1G expressed in HEK293 cells assessed as inhibition of peak currents at 10 uM by whole-cell patch-clamp method; format: functional, cell-based
Sequence (O43497 whole entry): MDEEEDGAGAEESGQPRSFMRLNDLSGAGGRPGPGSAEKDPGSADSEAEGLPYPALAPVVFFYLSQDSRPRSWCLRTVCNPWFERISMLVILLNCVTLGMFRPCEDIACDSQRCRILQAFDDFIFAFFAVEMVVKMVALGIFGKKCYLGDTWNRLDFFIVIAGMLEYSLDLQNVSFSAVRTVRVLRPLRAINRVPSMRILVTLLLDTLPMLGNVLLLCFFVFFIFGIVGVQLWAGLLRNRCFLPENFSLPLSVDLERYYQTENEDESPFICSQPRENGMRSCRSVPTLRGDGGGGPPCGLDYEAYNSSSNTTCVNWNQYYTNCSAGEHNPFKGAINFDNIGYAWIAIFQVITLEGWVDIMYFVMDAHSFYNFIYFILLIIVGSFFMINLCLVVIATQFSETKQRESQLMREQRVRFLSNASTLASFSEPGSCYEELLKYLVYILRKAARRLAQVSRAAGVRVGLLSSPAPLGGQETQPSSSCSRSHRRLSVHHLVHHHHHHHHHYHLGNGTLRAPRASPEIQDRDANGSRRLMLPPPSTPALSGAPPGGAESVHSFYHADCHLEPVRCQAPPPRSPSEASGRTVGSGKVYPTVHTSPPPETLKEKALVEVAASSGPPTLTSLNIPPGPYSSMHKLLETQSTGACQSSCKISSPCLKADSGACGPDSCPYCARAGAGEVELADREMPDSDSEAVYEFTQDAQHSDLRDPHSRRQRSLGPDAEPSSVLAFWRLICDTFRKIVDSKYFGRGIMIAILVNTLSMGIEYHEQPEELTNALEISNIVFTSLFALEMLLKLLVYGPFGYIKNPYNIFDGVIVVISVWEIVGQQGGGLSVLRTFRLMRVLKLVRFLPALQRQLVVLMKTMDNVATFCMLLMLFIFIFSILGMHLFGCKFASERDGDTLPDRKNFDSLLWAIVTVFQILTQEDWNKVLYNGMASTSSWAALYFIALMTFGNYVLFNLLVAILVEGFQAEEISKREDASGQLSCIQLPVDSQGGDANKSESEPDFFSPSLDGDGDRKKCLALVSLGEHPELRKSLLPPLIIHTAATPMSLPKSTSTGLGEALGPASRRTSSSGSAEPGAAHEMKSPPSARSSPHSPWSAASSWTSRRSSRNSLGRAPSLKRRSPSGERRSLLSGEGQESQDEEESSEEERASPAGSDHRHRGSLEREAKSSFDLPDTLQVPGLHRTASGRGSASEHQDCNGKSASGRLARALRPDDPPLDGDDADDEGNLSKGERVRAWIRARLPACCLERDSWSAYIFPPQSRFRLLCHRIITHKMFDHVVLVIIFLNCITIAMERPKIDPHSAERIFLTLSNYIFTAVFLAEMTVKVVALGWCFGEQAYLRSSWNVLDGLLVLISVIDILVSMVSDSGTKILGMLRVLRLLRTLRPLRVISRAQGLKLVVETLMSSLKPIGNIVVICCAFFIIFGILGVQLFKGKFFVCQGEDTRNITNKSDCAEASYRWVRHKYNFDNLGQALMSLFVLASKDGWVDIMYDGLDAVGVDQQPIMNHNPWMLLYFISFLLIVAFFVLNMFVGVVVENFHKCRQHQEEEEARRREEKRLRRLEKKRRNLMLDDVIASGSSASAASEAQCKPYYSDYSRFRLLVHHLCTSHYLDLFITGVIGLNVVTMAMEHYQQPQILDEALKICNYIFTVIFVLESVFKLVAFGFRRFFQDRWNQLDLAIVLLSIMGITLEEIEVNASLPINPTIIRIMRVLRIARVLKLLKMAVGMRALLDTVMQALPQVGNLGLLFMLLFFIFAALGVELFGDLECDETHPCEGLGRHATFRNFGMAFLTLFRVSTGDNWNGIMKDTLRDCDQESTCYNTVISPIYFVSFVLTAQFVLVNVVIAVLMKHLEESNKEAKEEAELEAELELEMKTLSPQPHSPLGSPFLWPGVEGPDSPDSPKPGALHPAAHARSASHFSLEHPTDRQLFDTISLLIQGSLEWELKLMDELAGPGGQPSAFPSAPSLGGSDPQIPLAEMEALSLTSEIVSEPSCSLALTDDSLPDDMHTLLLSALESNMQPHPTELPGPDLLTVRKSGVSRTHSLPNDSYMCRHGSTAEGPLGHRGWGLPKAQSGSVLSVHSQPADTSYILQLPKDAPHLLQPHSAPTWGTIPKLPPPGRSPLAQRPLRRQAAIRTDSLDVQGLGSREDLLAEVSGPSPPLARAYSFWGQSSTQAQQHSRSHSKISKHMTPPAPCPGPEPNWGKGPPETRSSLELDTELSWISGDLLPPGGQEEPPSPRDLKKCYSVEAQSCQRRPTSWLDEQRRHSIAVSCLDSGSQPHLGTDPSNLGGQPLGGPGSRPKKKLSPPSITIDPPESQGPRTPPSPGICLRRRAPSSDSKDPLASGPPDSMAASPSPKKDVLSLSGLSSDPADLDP
inhibition by entry:
quantity_name: inhibition (%)

• COC(=O)C(CCCN1CCN(Cc2cccc(C(F)(F)F)c2)CC1)(c1ccc(Br)cc1)C(C)C (centres undefined) = 93
• CCOC(=O)C(CCCN1CCN(Cc2ccc(OC)cc2)CC1)(c1ccccc1)C(C)C (centres undefined) = 96.3
• COC(=O)C(CCCN1CCN(Cc2cccc(F)c2)CC1)(c1ccc(Br)cc1)C(C)C (centres undefined) = 89.3
• COC(=O)C(CCCN(C)CCCc1nc2ccccc2[nH]1)(c1ccc(Br)cc1)C(C)C (centres undefined) = 96.9
• COC(=O)C(CCCN1CCN(Cc2ccccc2F)CC1)(c1ccc(Br)cc1)C(C)C (centres undefined) = 90.4
• COC(=O)C(CCCN1CCN(Cc2ccc(OC)c(OC)c2OC)CC1)(c1ccc(Br)cc1)C(C)C (centres undefined) = 95.1
• COC(=O)C(CCCN1CCN(Cc2cccc(C)c2)CC1)(c1ccc(Br)cc1)C(C)C (centres undefined) = 94.9
• COC(=O)C(CCCN(C)CCCc1nc2cc(OC)ccc2[nH]1)(c1ccc(Br)cc1)C(C)C (centres undefined) = 94.5
• COC(=O)C(CCCN(C)CCCc1nc2cc(OC)ccc2[nH]1)(c1ccc(OC)cc1)C(C)C (centres undefined) = 91.7

Measured values drawn from ChEMBL document CHEMBL1155867 for this set.
